# Tested on: WiDr
# Measurement notes: Activity against sensitive cell line of WiDr human colon tumor
# Type: functional, cell-based
pIC50: −log10 of the molar value.
The compounds listed here are annotated with their pIC50.
Experimental readout: pIC50

>  <Compound>
CN(C)CCN1C(=O)c2cccc3cc4ccccc4c(c23)C1=O [AZONAFIDE]

>  <Assay target>
WiDr

>  <Recorded result>
8.00

$$$$
>  <Compound>
CN(C)CCN1C(=O)c2cccc3cc4ccc(N)cc4c(c23)C1=O

>  <Assay target>
WiDr

>  <Recorded result>
8.26

$$$$
>  <Compound>
O=C1c2c(O)ccc(O)c2C(=O)c2c(NCCNCCO)ccc(NCCNCCO)c21 [MITOXANTRONE]

>  <Assay target>
WiDr

>  <Recorded result>
8.00

$$$$
>  <Compound>
CC(=O)Nc1ccc2cc3cccc4c3c(c2c1)C(=O)N(CCN(C)C)C4=O

>  <Assay target>
WiDr

>  <Recorded result>
8.05

$$$$
